Biological target: T1, extracellular domain of human BCMA (human, UniProt Q02223 1-54)
T1 construct: amine-linked to Octet AR2G tips; also called hsBCMA; BCMA (human)
T1 sequence: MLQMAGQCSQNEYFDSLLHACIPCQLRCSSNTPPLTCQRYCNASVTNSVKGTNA
Assay: Octet BLI; Fab 200 nM
PARAMETER_MEASURED: Kd (nM)

BINDER	PARAMETER_MEASURED	RESULT_NUMBER
AB200-R1a-Fab_VH2 (Fab, V domains shown) VH: QVQLVQSGAEVKKPGSSVKVSCKASGGTFSNYWMHWVRQAPGQGLEWMGATYRGHSDTYYNQKFQGRVTITADKSTSTAYMELSSLRSEDTAVYYCARGAVFHGYDVLDNWGQGTLVTVSS VL: DIQMTQSPSSLSASVGDRVTITCSATQDISNYLNWYQQKPGKAPKLLIYFTSNLQSGVPSRFSGSGSGTDFTLTISSLQPEDFATYYCQQYRKLPWTFGQGTKLEIKR	Kd	2.85
AB200-R1a-Fab_VH5 (Fab, V domains shown) VH: QVQLVQSGAEVKKPGSSVKVSCKASGGTFSNYWMHWVRQAPGQGLEWMGATYRGHSDSNYNNKFKGRVTITADKSTSTAYMELSSLRSEDTAVYYCARGAIYHGYDVLDNWGQGTLVTVSS VL: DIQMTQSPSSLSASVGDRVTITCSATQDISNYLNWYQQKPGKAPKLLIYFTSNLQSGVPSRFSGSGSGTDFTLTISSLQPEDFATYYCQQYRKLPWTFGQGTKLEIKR	Kd	21.1
AB200-R1a-Fab_VH42 (Fab, V domains shown) VH: QVQLVQSGAEVKKPGSSVKVSCKASGGTFSNYWMHWVRQAPGQGLEWMGATYRGHSTTYYNQKFKGRVTITADKSTSTAYMELSSLRSEDTAVYYCARGSIYHGYDVMDNWGQGTLVTVSS VL: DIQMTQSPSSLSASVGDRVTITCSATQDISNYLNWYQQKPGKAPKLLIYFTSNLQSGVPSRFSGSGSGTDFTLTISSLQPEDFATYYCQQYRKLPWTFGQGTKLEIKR	Kd	28.4
AB200-R1a-Fab_VH46 (Fab, V domains shown) VH: QVQLVQSGAEVKKPGSSVKVSCKASGGTFSNYWMHWVRQAPGQGLEWMGATYRGHSDTNYNQKYKGRVTITADKSTSTAYMELSSLRSEDTAVYYCARGAIYNGYDVLDNWGQGTLVTVSS VL: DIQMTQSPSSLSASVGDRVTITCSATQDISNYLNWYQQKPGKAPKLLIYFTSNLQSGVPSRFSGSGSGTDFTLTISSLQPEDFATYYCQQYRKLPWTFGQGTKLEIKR	Kd	11.6
AB200-R1a-Fab_VH31 (Fab, V domains shown) VH: QVQLVQSGAEVKKPGSSVKVSCKASGGTFSNYWMHWVRQAPGQGLEWMGGTYRGHSDTYFNQKFKGRVTITADKSTSTAYMELSSLRSEDTAVYYCARGAIYHGFDVLDNWGQGTLVTVSS VL: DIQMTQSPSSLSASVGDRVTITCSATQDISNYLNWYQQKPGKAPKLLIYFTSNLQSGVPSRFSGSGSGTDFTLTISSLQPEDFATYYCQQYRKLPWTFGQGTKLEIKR	Kd	9.06

Data provenance is patent US20240327535A1.
